EXPERIMENTAL_SYSTEM: Rho-associated protein kinase 2 (Homo sapiens, UniProt O75116)
Sequence (O75116 whole entry): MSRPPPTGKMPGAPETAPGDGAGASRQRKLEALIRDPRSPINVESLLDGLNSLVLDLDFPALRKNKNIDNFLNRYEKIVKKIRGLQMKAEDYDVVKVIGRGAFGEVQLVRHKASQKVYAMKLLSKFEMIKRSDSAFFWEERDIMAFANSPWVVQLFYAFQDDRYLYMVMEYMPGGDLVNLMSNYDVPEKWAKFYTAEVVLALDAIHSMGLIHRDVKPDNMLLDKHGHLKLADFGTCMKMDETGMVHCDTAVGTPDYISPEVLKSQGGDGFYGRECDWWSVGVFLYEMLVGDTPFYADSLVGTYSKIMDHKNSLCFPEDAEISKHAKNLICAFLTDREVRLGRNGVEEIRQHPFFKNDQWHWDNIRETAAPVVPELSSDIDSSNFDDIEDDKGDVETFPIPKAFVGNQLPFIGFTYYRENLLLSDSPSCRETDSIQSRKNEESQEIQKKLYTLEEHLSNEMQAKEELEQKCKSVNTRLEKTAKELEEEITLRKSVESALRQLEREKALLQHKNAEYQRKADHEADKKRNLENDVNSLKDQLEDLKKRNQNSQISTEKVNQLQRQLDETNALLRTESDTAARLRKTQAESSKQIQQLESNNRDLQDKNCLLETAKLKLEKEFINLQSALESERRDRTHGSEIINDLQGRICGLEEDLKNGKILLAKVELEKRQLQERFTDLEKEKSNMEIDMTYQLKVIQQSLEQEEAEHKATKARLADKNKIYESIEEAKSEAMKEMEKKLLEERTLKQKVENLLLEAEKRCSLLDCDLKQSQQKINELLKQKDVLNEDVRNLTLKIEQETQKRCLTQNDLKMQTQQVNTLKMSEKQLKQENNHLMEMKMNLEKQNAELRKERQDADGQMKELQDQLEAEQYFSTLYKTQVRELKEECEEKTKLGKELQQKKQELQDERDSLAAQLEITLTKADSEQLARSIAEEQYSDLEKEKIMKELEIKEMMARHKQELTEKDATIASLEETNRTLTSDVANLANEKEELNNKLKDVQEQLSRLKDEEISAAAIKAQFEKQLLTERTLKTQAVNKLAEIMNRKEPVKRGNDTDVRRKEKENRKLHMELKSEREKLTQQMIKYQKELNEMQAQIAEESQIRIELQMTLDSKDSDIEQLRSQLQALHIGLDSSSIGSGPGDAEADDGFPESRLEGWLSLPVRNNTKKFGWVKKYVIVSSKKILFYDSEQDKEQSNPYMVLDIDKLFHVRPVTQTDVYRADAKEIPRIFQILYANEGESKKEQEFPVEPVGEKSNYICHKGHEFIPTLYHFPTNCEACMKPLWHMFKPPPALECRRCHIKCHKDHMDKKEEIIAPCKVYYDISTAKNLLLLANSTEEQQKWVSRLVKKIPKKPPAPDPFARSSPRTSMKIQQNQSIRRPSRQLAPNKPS
RUN_DESCRIPTION: ELISA Assay: ROCK Substrate Coated Plate (Part No 241601): One strip well 96-well plate pre-coated with recombinant MYPT1.Buffer: 25 mM Tris, pH 7.5, 10 mM MgCl2, 5 mM Glycerol-2-Phosphate, 0.1 mM Na3VO4; 1% DMSO; 2.5 mM DTT; (Enzyme: ROCK active-II) (Cell Biolabs, Catalog #STA-406, Part No. 241505) 0.1 ng/μl.ATP Solution (Part No. 241604): 100 mM ATP. Final concentration of ATP in reaction mixture: 250 μM.Anti-phospho-MYPT1 (Thr696) (Part No. 241603).Secondary Antibody, HRP Conjugate (Part No. 231003).Biotinylated substrate, diluted to 0.25 μM with buffer described above (without ATP).Steps:1. Purified kinase or cell lysate sample can be used directly in the kinase assay or further diluted with 1× Kinase Buffer. Each sample should be assayed in duplicate.2. Add 90 μL of the diluted active ROCK-II positive control or unknown ROCK samples to the wells of the substrate plate.3. Initiate the kinase reaction by adding 10 μL of the 10× Kinase Reaction Buffer containing DTT and ATP. Mix well.4. Cover with a plate cover and incubate the wells at 30° C. for 30-60 minutes with gentle agitation.5. Stop kinase reaction by flicking out the content or by adding 50 μL of 0.5M EDTA, pH 8.0, to each well.6. Remove the plate cover and empty wells. Wash microwell strips 3 times with 250 μL 1× Wash Buffer per well with thorough aspiration between each wash. After the last wash, empty wells and tap microwell strips on absorbent pad or paper towel to remove excess 1× Wash Buffer.7. Add 100 μL of the diluted anti-phospho-MYPT1 (Thr696) antibody to each well.8. Cover with the plate cover and incubate at room temperature for 1 hour on an orbital shaker.9. Remove the plate cover and empty wells. Wash the strip wells 3 times according to step 6 above.10. Add 100 μL of the diluted HRP-conjugated secondary antibody to each well.11. Cover with the plate cover and incubate at room temperature for 1 hour on an orbital shaker.12. Remove the plate cover and empty wells. Wash microwell strips 3 times according to step 6 above. Proceed immediately to the next step.13. Warm Substrate Solution to room temperature. Add 100 μL of Substrate Solution to each well, including the blank wells. Incubate at room temperature for 5-20 minutes on an orbital shaker.14. Stop the enzyme reaction by adding 100 μL of Stop Solution into each well, including the blank wells. Results should be read immediately (color will fade over time).15. Read absorbance of each microwell on a spectrophotometer using 450 nm as the primary wave length.
pIC50: −log10 of the molar value.
MEASUREMENT_KIND: pIC50

> print(dat)
                                  structure  measurement.kind  result
1  COC(=O)c1ccc(CN(CCO)C(=O)Nc2ccc3cnccc3c2)cc1             pIC50  < 6.00
2   CN(C)CCN(Cc1ccccc1)C(=O)Nc1ccc2cnccc2c1             pIC50  < 6.00
3  CN(C)CCN(Cc1ccc(Oc2ccc(C#N)cc2)cc1)C(=O)Nc1ccc2cnccc2c1             pIC50  < 6.00
